System: SMMC-7721
test details: Cell cycle arrest in human SMMC7721 cells assessed as accumulation at G0/G1 phase at 0.25 uM incubated for 48 hrs by propidium iodide staining based flow cytometry (Rvb=77%)
Assay type: functional
Activity for assorted compounds

compound: Nc1ccccc1NC(=O)c1ccc(CNC(=O)OCc2cccnc2)cc1 [ENTINOSTAT]
measurement target: SMMC-7721
Activity [%]: 75.1
//
compound: COc1ccc2c(=O)n(C)c(SCc3ccc(C(=O)Nc4ccccc4N)cc3)nc2c1
measurement target: SMMC-7721
Activity [%]: 67.11
//
compound: CC(=O)Nc1ccc(C(=O)Nc2ccccc2N)cc1 [TACEDINALINE]
measurement target: SMMC-7721
Activity [%]: 76.9
//
compound: CCn1c(SCc2ccc(/C=C/C(=O)Nc3ccccc3N)cc2)nc2cc(OC)ccc2c1=O
measurement target: SMMC-7721
Activity [%]: 61.58
//
compound: Nc1ccc(F)cc1NC(=O)c1ccc(CNC(=O)/C=C/c2cccnc2)cc1
measurement target: SMMC-7721
Activity [%]: 77.96
//
compound: Cn1c(SCc2ccc(C(=O)Nc3ccccc3N)cc2)nc2cc(Br)ccc2c1=O
measurement target: SMMC-7721
Activity [%]: 65.59
//
compound: COc1ccc2c(=O)n(-c3ccccc3Cl)c(SCc3ccc(C(=O)Nc4ccccc4N)cc3)nc2c1
measurement target: SMMC-7721
Activity [%]: 48.75
